Each recorded value in this set is attributed to patent EP0485890A2.

Tested on: Lysophospholipase (Phospholipase B)
test.summary: In vitro enzyme test: inhibition of released exoenzymes (phospholipase) of Candida albicans blastoconidia on egg-yolk agar
Format: cell-based
conditions: Konzentration 50 µg/ml; Candida albicans Stamm 200/175
parameter.measured: % Hemmung der Phospholipase (%)

INSERT INTO assay_data (molecule, experimental_result) VALUES
  ('CC(=NOCC(Cn1ccnc1)OCc1ccc(Cl)cc1)c1ccc(Cl)cc1Cl (stereo not drawn)', 100),
  ('Clc1ccc(OCC(Cn2ccnc2)N2CCN(c3ccccc3)CC2)cc1 (stereo not drawn)', 100),
  ('CCN(CC(Cn1ccnc1)OCc1ccc(Cl)cc1)c1ccc(Cl)cc1 (stereo not drawn)', 90),
  ('CN(CC(Cn1ccnc1)OCc1ccc(Cl)cc1Cl)c1ccc(Cl)cc1 (stereo not drawn)', 100),
  ('CC(=NOCC(Cn1ccnc1)OCc1ccc(Cl)cc1Cl)c1ccc(Cl)cc1 (stereo not drawn)', 100),
  ('CCN(CC(Cn1ccnc1)OCc1ccc(Cl)cc1Cl)c1ccc(Cl)c(Cl)c1 (stereo not drawn)', 100),
  ('CC(C)N(CC(Cn1ccnc1)OCc1ccc(Cl)cc1)c1ccc(Cl)c(Cl)c1 (stereo not drawn)', 100),
  ('CCN(CC(Cn1ccnc1)OCc1ccc(Cl)cc1Cl)c1ccc(Cl)cc1 (stereo not drawn)', 100),
  ('OC(CN(Cc1ccc(Cl)cc1)Cc1ccc(Cl)cc1)Cn1ccnc1 (stereo not drawn)', 100),
  ('CCN(CC(Cn1ccnc1)OCc1ccc(Cl)cc1)c1cccc(Cl)c1 (stereo not drawn)', 60),
  ('CCN(CC(Cn1ccnc1)OCc1ccc(Cl)cc1)c1ccc(Cl)c(Cl)c1 (stereo not drawn)', 30),
  ('Clc1ccc(CN2CCN(C(COc3ccc(Cl)cc3Cl)Cn3ccnc3)CC2)cc1 (stereo not drawn)', 100),
  ('Clc1ccc(COC(CN2CCCc3ccccc32)Cn2ccnc2)c(Cl)c1 (stereo not drawn)', 100),
  ('Clc1ccc(N2CCN(C(COCc3ccc(Cl)cc3Cl)Cn3ccnc3)CC2)cc1 (stereo not drawn)', 100),
  ('CC(=NOCC(Cn1ccnc1)Sc1ccc(Cl)cc1)c1ccc(Cl)cc1 (stereo not drawn)', 90),
  ('CCCCN(CC(Cn1ccnc1)OCc1ccc(Cl)cc1)c1ccc(Cl)cc1 (stereo not drawn)', 80),
  ('CCN(CC(Cn1ccnc1)OCc1ccc(Cl)cc1)c1cccc(C(F)(F)F)c1 (stereo not drawn)', 12),
  ('CCN(CC(Cn1ccnc1)OCc1ccc(Cl)cc1)c1ccc(Cl)cc1Cl (stereo not drawn)', 60),
  ('OC(CN(Cc1ccc(Cl)cc1)c1ccc(Cl)cc1)Cn1ccnc1 (stereo not drawn)', 100),
  ('Clc1ccc(COC(CNc2ccc(Cl)cc2)Cn2ccnc2)cc1 (stereo not drawn)', 26),
  ('COC(CN(Cc1ccc(Cl)cc1)c1ccc(Cl)cc1)Cn1ccnc1 (stereo not drawn)', 100),
  ('CCCCCCCCOC(CN(CC)c1ccc(Cl)cc1)Cn1ccnc1 (stereo not drawn)', 100),
  ('Clc1ccc(N2CCN(C(COc3ccc(Cl)cc3Cl)Cn3ccnc3)CC2)cc1 (stereo not drawn)', 100),
  ('CC(=NOCC(Cn1ccnc1)OCc1ccc(Cl)cc1)c1ccc(Cl)cc1 (stereo not drawn)', 50),
  ('CC(=NOCC(Cn1ccnc1)OCc1ccc(Cl)cc1Cl)c1ccc(Cl)cc1Cl (stereo not drawn)', 100),
  ('Clc1ccc(SC(COc2ccc(Cl)cc2Cl)Cn2ccnc2)cc1 (stereo not drawn)', 50),
  ('C=CCN(CC(Cn1ccnc1)OCc1ccc(Cl)cc1)c1ccc(Cl)cc1 (stereo not drawn)', 100),
  ('CCN(CC(Cn1ccnc1)Sc1ccc(Cl)cc1)c1ccc(Cl)c(Cl)c1 (stereo not drawn)', 100),
  ('Clc1ccc(COC(CN2CCN(c3ccc(Cl)cc3)CC2)Cn2ccnc2)cc1 (stereo not drawn)', 100),
  ('CCN(CC(O)Cn1ccnc1)c1ccc(Cl)c(Cl)c1 (stereo not drawn)', 100),
  ('Clc1ccc(COC(CN2CCCc3ccccc32)Cn2ccnc2)cc1 (stereo not drawn)', 100),
  ('CCN(CC(Cn1ccnc1)OCc1cccc(Cl)c1)c1ccc(Cl)cc1 (stereo not drawn)', 50),
  ('CCCCCCCCN(CC(Cn1ccnc1)OCc1ccc(Cl)cc1)c1ccc(Cl)cc1 (stereo not drawn)', 100);
